# maps each entry to its inhibition at 10 µM
- target-desc: vanilloid receptor 1 (VR1/TRPV1 receptor) (Homo sapiens, UniProt Q8NER1)
- Sequence (Q8NER1 whole entry): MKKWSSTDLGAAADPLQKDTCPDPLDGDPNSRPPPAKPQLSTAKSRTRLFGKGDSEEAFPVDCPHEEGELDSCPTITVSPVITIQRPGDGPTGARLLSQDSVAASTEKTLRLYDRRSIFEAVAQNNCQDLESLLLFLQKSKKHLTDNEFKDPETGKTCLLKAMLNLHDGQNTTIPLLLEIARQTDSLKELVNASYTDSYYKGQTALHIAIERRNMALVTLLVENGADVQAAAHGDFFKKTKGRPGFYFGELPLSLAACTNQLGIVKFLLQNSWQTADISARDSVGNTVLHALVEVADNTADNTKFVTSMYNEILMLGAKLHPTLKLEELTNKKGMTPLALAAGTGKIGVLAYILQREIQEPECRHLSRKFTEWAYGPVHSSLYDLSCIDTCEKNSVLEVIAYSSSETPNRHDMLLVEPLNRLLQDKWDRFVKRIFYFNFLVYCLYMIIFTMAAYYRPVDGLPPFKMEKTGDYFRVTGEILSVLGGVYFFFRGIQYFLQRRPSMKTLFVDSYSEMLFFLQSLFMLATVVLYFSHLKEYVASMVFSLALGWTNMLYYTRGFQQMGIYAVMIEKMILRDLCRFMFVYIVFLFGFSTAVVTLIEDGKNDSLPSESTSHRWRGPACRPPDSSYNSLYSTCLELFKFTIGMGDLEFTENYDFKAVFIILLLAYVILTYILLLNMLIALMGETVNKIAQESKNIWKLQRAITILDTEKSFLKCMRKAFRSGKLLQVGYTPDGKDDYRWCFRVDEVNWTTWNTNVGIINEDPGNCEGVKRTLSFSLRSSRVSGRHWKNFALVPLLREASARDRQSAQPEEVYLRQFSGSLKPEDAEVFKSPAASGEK
- protocol-notes: Human VR1/TRPV1 receptor inhibition after pH stimulus
- Type: cell-based
- measurement-setup: compound 10 μM
The answer is to be given in %; state only the numeric part.

These recorded examples may help you get a feel for the data.
compound	target-desc	inhibition at 10 µM / %
CC1CCN(c2nc(C(F)(F)F)ccc2CNC(=O)C(C)c2ccc(N(C)S(C)(=O)=O)c(F)c2)CC1 (stereo not drawn) [Example 3]	vanilloid receptor 1 (VR1/TRPV1 receptor) (Homo sapiens, UniProt Q8NER1)	16
CC1CCN(c2cc(C(C)(C)C)ccc2CNC(=O)C(C)c2ccc(N(C)S(C)(=O)=O)c(F)c2)CC1 (stereo not drawn) [Example 14]	vanilloid receptor 1 (VR1/TRPV1 receptor) (Homo sapiens, UniProt Q8NER1)	43
CC1CCN(c2cc(C(F)(F)F)ccc2CNC(=O)C(C)c2ccc(N(C)S(C)(=O)=O)c(F)c2)CC1 (stereo not drawn) [Example 12]	vanilloid receptor 1 (VR1/TRPV1 receptor) (Homo sapiens, UniProt Q8NER1)	43
CCN(c1ccc([C@H](C)C(=O)NCc2ccc(C(C)(C)C)cc2)cc1F)S(C)(=O)=O [Example 6]	vanilloid receptor 1 (VR1/TRPV1 receptor) (Homo sapiens, UniProt Q8NER1)	21
CC(C(=O)NCc1ccc(C(F)(F)F)nc1SC1CCCCC1)c1ccc(N(C)S(C)(=O)=O)c(F)c1 (stereo not drawn) [Example 7]	vanilloid receptor 1 (VR1/TRPV1 receptor) (Homo sapiens, UniProt Q8NER1)	20
CC(C(=O)NCc1ccc(C(C)(C)C)cc1)c1ccc(N(C)S(C)(=O)=O)c(F)c1 (stereo not drawn) [Example 4]	vanilloid receptor 1 (VR1/TRPV1 receptor) (Homo sapiens, UniProt Q8NER1)	22
CC(C(=O)NCc1ccc(C(C)(C)C)cc1SC1CCCCC1)c1ccc(N(C)S(C)(=O)=O)c(F)c1 (stereo not drawn) [Example 15]	vanilloid receptor 1 (VR1/TRPV1 receptor) (Homo sapiens, UniProt Q8NER1)	30
CC1CCN(c2nc(C(C)(C)C)ccc2CNC(=O)C(C)c2ccc(N(C)S(C)(=O)=O)c(F)c2)CC1 (stereo not drawn) [Example 10]	vanilloid receptor 1 (VR1/TRPV1 receptor) (Homo sapiens, UniProt Q8NER1)	11

Bench note: what inhibition at 10 µM did CCN(c1ccc(C(C)C(=O)NCc2ccc(C(F)(F)F)nc2N2CCC(C)CC2)cc1F)S(C)(=O)=O (stereo not drawn) [Example 9] show? 46
